test system: adult females of H. contortus; assay: adult female motility time-course assay; set-up: species or system Haemonchus contortus; conditions: 50 µM, 24 h
MEASUREMENT_TYPE: motility reduction, adult females, 24 h (%)

[[record]]
compound = "C[C@](C#N)(COc1cc(C#N)ccc1C(F)(F)F)NC(=O)c1ccc(SC(F)(F)F)cc1 [Monepantel, reference compound]"
test_value = 67

[[record]]
compound = "c1ccc(-c2cnc3ccccc3n2)cc1"
test_value = 40

[[record]]
compound = "N#Cc1ccc(OCc2cccc(F)c2)cc1 [Compound 6, 4-[(3-Fluorophenyl)methoxy]benzonitrile]"
test_value = 75

[[record]]
compound = "CC(C)(CO)NCC#Cc1ccccc1"
test_value = 40


* * *

test system: exsheathed third-stage larvae (xL3s) of H. contortus; test: abnormal larval phenotype / worm morphology assessment; parameters: species or system Haemonchus contortus; settings: exhibited at 50 µM, 168 h
MEASUREMENT_TYPE: Abnormal Phenotype

[[record]]
compound = "N#Cc1ccc(NC(=O)COCC(=O)NCC(N)=O)cc1 [Compound 9]"
measurement_type = "Abnormal Phenotype"
test_value = "nil"

[[record]]
compound = "COc1ccc(-c2cncc(C#N)n2)cc1OC [Compound 3]"
measurement_type = "Abnormal Phenotype"
test_value = "Evi"

[[record]]
compound = "N#Cc1ccc(OCc2cccc(F)c2)cc1 [Compound 6, 4-[(3-Fluorophenyl)methoxy]benzonitrile]"
measurement_type = "Abnormal Phenotype"
test_value = "Evi"

[[record]]
compound = "N=C(N)c1ccc(N2CCOCC2)cc1 [Compound 2]"
measurement_type = "Abnormal Phenotype"
test_value = "nil"

[[record]]
compound = "N#Cc1ccc(N2CCC(O)CC2)cc1 [Compound 7, 4-(4-Hydroxypiperidin-1-yl)benzonitrile]"
measurement_type = "Abnormal Phenotype"
test_value = "nil"

[[record]]
compound = "CC12CN3CN(C1)CC(c1ccccc1)(C3)C2=O [Compound 8]"
measurement_type = "Abnormal Phenotype"
test_value = "nil"

[[record]]
compound = "O=C(CCC(F)(F)F)NCCc1cnccn1 [Compound 5]"
measurement_type = "Abnormal Phenotype"
test_value = "nil"

[[record]]
compound = "c1ccc(-c2cnc3ccccc3n2)cc1 [Compound 4, 2-Phenylquinoxaline]"
measurement_type = "Abnormal Phenotype"
test_value = "nil"


* * *

test: HepG2 cytotoxicity (CellTiter-Glo); assay type: cell-based; details: human, HepG2 cells
MEASUREMENT_TYPE: CC50 at 48 h

[[record]]
smiles_entry = "c1ccc(-c2cnc3ccccc3n2)cc1"
test_value = "> 40 µM"


* * *

system: exsheathed third-stage larvae (xL3s) of H. contortus; test: abnormal larval phenotype / worm morphology assessment; design: species or system Haemonchus contortus; conditions: exhibited at 50 µM, 168 h
MEASUREMENT_TYPE: Abnormal Phenotype

[[record]]
molecule = "CO/N=C1\\C[C@]2(C[C@@H]3C[C@@H](C/C=C(\\C)C[C@@H](C)/C=C/C=C4\\CO[C@@H]5[C@H](O)C(C)=C[C@@H](C(=O)O3)[C@]45O)O2)O[C@H](/C(C)=C/C(C)C)[C@H]1C [Moxidectin, reference compound]"
measurement_type = "Abnormal Phenotype"
test_value = "nil"

[[record]]
molecule = "CC(C)(CO)NCC#Cc1ccccc1 [Compound 10]"
measurement_type = "Abnormal Phenotype"
test_value = "nil"

[[record]]
molecule = "C[C@](C#N)(COc1cc(C#N)ccc1C(F)(F)F)NC(=O)c1ccc(SC(F)(F)F)cc1 [Monepantel, reference compound]"
measurement_type = "Abnormal Phenotype"
test_value = "Coi"


This collection of values is drawn from paper PMC11988817.
